- Tested on: Hepatocyte
- ASSAY_SUMMARY: Prodrug activation in human hepatocytes assessed as triphosphate metabolite formation at 10 uM after 8 hrs by LC-MS analysis
- Assay type: ADME, cell-based
ASSAY_METRIC: Drug metabolism (ng/mL)
Please reply with the bare figure in ng/mL and do not write the unit itself.

Reported Drug metabolism for C[C@H](NP(=O)(OC[C@H]1O[C@@H](n2ccc(=O)[nH]c2=O)[C@@]2(CCO2)[C@@H]1O)Oc1ccccc1)C(=O)OCc1ccccc1 (mixture of isomers) was 2457

Reported Drug metabolism for CC[C@H](NP(=O)(OC[C@H]1O[C@@H](n2ccc(=O)[nH]c2=O)[C@@]2(CCO2)[C@@H]1O)Oc1ccccc1)C(=O)OCc1ccccc1 (mixture of isomers) was 1480

Reported Drug metabolism for C[C@H](NP(=O)(OC[C@H]1O[C@@H](n2ccc(=O)[nH]c2=O)[C@@]2(CCO2)[C@@H]1O)Oc1cccc2ccccc12)C(=O)OCc1ccccc1 (mixture of isomers) was 3373

Reported Drug metabolism for CCCCOC(=O)[C@H](C)NP(=O)(OC[C@H]1O[C@@H](n2ccc(=O)[nH]c2=O)[C@@]2(CCO2)[C@@H]1O)Oc1ccccc1 (some centres undefined) was 2730

This collection of values is drawn from ChEMBL document CHEMBL3120160.
